Test system: AD2
Type: cell-based, human
Settings: read-out: EC50
measure: EC50
The answer consists of two parts: a number and, after it, its unit.

// sample CCNC(=O)[C@H]1O[C@@H](n2cnc3c(N)ncnc32)[C@H](O)[C@@H]1O [NECA, reference compound] , its EC50 was 27.8 nM

* * *

Test: in vivo
Conditions: both, beagle, dog, po, 1 mg/kg
measure: AUC(0-t) (ng·h/mL)
One number for each entry, in ng·h/mL.

// sample `O=C(O)[C@H]1C2CCC(CC2)[C@@H]1Nc1nc(-c2n[nH]c3ncc(F)cc23)nc(C2CC2)c1F` , its AUC(0-t) was 211
